test: AUClast in mouse at 10 mg/kg, po administered as single dose; format: ADME, organism-based; design: dose 10 mg/kg, time 0 - last, route oral; conditions: in vivo
REPORTED_ENDPOINT: AUC(0-t) (ng·h/mL)
Return type: number; implicit unit ng·h/mL.

Problem: Give the reported AUC(0-t) for this compound. CCc1ccc(Cc2cc3c(cc2C)CO[C@]32O[C@H](C)[C@@H](O)[C@H](O)[C@H]2O)s1
Result: 3010

----------
Measured IC50 by item
biological target: Sodium/glucose cotransporter 2 (Homo sapiens); assay: Inhibition of human full length SGLT2 expressed in NIH3T3 cells measured after 1 hr in presence of [14C]-methyl-alpha -D-glucopyranoside by scintillation counter method
Sequence (P31639 whole entry): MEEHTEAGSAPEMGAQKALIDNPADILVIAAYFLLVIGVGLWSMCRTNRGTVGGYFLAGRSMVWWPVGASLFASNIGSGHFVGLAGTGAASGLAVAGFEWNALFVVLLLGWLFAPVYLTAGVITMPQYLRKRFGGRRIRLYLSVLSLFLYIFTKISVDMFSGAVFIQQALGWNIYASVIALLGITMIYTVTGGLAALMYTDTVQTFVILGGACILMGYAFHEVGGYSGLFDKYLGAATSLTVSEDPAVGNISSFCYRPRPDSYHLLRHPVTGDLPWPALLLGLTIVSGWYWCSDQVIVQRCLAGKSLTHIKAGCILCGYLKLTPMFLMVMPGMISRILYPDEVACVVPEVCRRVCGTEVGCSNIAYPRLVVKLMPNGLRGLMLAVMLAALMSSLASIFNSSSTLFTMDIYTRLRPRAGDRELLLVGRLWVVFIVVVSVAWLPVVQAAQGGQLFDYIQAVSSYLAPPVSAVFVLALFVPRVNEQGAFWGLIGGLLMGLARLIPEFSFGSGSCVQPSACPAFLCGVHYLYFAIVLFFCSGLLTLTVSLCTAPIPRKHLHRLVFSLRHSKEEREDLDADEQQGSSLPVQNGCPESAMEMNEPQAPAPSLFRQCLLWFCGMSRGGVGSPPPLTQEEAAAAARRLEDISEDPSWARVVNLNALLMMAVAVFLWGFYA
Use nM as the unit, but write only the number.

{"columns": ["SMILES", "ASSAYED_SYSTEM", "UNIT_SPEC", "IC50"],
 "data": [
  ["Cc1ccc(Cc2cc3c(cc2Cl)CO[C@]32O[C@H](C)[C@@H](O)[C@H](O)[C@H]2O)s1", "Sodium/glucose cotransporter 2 (Homo sapiens)", "nM", 8.5]
]}

Problem: Output IC50 of COC(=O)Cc1ccc(Cc2cc3c(cc2Cl)CO[C@]32O[C@H](C)[C@@H](O)[C@H](O)[C@H]2O)s1
Result: 42.4

Problem: Using known records, supply IC50 for C[C@H]1O[C@]2(OCc3cc(Cl)c(Cc4ccc(CO)s4)cc32)[C@H](O)[C@@H](O)[C@@H]1O
Result: 47.2

Problem: // Input: CCc1ccc(Cc2cc3c(cc2F)CO[C@]32O[C@H](C)[C@@H](O)[C@H](O)[C@H]2O)s1 . Output its IC50 only.
Result: 26.2

Problem: Using known records, supply IC50 for C[C@H]1O[C@]2(OCc3cc(Cl)c(Cc4ccc(Cl)s4)cc32)[C@H](O)[C@@H](O)[C@@H]1O
Result: 15.9

Problem: Consider the molecule CCOc1ccc(Cc2cc3c(cc2Cl)CO[C@]32O[C@H](C)[C@@H](O)[C@H](O)[C@H]2O)cc1 . State its measured IC50.
Result: 8.8

Problem: For C[C@H]1O[C@]2(OCc3cc(Cl)c(Cc4ccc(C=O)s4)cc32)[C@H](O)[C@@H](O)[C@@H]1O , write its IC50.
Result: 51.3
